Target Under Test: She2p;She3p (Saccharomyces cerevisiae;Saccharomyces …, UniProt P36068;P38272 1-246;1-425, |)
Sequence (P36068 whole entry, chain 1 of 2): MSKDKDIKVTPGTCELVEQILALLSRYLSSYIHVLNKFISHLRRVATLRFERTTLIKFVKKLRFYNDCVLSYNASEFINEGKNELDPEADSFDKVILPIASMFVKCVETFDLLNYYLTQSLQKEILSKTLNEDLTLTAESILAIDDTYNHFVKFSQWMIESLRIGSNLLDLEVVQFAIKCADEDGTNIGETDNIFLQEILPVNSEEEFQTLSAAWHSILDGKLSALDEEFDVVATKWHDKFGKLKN
Sequence (P38272 whole entry, chain 2 of 2): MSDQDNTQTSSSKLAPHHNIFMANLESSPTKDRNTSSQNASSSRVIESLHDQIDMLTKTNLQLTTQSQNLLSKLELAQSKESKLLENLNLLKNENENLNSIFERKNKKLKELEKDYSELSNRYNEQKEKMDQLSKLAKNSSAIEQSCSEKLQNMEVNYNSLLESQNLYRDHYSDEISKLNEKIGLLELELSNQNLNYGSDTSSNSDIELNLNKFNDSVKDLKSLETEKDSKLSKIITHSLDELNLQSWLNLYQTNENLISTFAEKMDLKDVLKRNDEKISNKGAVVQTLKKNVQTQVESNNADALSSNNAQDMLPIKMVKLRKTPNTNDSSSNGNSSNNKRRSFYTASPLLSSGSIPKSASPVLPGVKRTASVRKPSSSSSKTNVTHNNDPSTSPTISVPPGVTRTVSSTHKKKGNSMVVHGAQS
Assay Text: EMSA; She3p constant 25 nM; Kd stated as in similar range; EMSA: 20 mM HEPES pH 7.8, 200 mM NaCl, 2 mM MgCl2, 2 mM DTT, 4% glycerol, 30 or 100 ug/ml yeast tRNA, 5 nM RNA, 20 C; filter binding: 20 mM HEPES pH 7.4-7.5 (7.9 with She3p), 150 mM NaCl, 2 mM MgCl2, 2 mM DTT, 30 ug/ml yeast tRNA, 0.5 nM RNA; pull-down: HNMD buffer, 4 C
Condition Info: protein: recombinant;recombinant; tags: GST tag (PreScission-cleaved);C-terminal His6; chain copies: 4;2; label: 32P; stem-loop
Recorded Metric: Kd

Q: What Kd value was documented for this binder, ASH1 E3-51 (structured_RNA) RNA: AUGGAUAACUGAAUCUCUUUCAACUAAUAAGAGACAUUAUCACGAAACAAU ?
Ans: ~25 nM
